Each recorded value in this set is attributed to patent US20240010721A1.

Entries and their measured ADCC Cytotoxicity (%), Donor 2, 10 nM follow.
Biological target: human ROR1 (hROR1) on cells (human, UniProt Q01973 30-937)
Sequence (Q01973 30-937): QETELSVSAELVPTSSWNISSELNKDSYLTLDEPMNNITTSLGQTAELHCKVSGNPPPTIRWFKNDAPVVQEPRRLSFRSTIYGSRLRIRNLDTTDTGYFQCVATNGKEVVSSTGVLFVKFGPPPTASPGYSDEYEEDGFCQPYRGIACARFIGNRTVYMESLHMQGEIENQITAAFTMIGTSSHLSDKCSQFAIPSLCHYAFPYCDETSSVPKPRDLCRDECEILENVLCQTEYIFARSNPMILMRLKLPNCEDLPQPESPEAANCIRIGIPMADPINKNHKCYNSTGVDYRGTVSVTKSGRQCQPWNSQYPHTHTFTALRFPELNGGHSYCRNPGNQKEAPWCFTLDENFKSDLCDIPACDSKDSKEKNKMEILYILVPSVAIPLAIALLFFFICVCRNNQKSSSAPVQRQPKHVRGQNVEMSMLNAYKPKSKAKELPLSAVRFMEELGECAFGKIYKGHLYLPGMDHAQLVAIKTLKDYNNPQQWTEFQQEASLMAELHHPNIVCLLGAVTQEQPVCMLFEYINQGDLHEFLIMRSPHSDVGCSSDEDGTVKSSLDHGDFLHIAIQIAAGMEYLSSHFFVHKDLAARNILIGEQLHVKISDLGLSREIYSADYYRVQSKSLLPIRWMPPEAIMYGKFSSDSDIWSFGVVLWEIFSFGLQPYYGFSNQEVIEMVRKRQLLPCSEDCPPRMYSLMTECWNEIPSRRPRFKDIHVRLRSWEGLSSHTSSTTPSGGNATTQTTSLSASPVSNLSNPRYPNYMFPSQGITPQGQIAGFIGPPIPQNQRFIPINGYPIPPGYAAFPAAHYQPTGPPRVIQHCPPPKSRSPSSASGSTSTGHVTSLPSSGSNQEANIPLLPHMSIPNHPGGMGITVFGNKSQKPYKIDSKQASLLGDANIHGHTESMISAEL
Experiment: cell-based or functional assay
MEASUREMENT_LABEL: ADCC Cytotoxicity (%), Donor 2, 10 nM

>>> recorded_measurement("Positive control antibody (PR000374) (antibody, human IgG1, kappa, V domains shown) VH: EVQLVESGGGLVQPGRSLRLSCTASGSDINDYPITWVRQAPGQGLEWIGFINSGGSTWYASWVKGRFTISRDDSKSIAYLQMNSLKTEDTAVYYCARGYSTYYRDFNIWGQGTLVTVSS VL: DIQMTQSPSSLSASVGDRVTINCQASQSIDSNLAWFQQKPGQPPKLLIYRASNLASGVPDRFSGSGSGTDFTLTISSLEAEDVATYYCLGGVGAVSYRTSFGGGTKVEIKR")
18.2
>>> recorded_measurement("PR001357 (antibody, human IgG1, kappa, V domains shown, fully human IgG1, kappa) VH: QVQLVQSGGGVVQPGRSLRLSCAASGFTFSSYGMHWVRQAPGKGLEWVAVIWYDGSNKDYADSVKGRFTISRDTSKNTLYLQMNSLRAEDTAVYYCAREQARSFDLWGRGTLVTVSS VL: DIQLTQSPYSLSASVGDRVTITCRASQTINNWLAWYQQKPGKAPKLLIYKASSLESGVPSRFSGSGSGTEFTLTISSLQPDDFATYYCQQYKLYSPMYTFGQGTKVEIKR")
15.8
